Target: human V1a receptor (Homo sapiens (Human), UniProt P37288)
Sequence (P37288 whole entry): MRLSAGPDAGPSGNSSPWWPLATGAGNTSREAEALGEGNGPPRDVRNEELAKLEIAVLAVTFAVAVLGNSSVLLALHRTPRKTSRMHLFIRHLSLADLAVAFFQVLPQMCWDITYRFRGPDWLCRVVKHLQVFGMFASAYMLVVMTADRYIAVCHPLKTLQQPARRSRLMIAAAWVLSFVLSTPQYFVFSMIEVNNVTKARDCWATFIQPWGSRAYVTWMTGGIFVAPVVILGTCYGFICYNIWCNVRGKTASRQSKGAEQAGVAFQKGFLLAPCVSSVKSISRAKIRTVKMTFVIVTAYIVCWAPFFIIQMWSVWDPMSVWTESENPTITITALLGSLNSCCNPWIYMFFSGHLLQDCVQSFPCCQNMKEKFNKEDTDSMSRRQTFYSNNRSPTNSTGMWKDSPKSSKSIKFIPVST
Assay: human V1a receptor binding studies (3H-Vasopressin, SPA beads)
Conditions: membranes of HEK293 cells transiently transfected with human V1a receptor, Ki by Cheng-Prussoff
readout-name: pKi hV1a

compound=C/C(=C1/SC(N2CCC3(CC2)OCc2cccnc23)=NC1=O)c1ccc(Cl)cc1 recorded_measurement=9.0
compound=C/C(=C1/SC(N2CCC3(CC2)OC(=O)c2ccccc23)=NC1=O)c1ccc(Cl)cc1 recorded_measurement=9.0
compound=C/C(=C1/SC(N2CCC3(CC2)OCc2ccccc23)=NC1=O)c1nc[nH]c1C recorded_measurement=6.6
compound=C/C(=C1\SC(N2CCC3(CC2)OCc2ccccc23)=NC1=O)c1ccccc1 recorded_measurement=9.0
compound=CC(C)=C1SC(N2CCC3(CC2)OCc2ccccc23)=NC1=O recorded_measurement=7.8
compound=C/C(=C1/SC(N2CCC3(CC2)OC(=O)c2ccccc23)=NC1=O)c1ccc(C)nc1 recorded_measurement=7.9
compound="C/C(=C1/SC(N2CCC3(CC2)OCc2ccccc23)=NC1=O)c1ccccc1F [Example 57]" recorded_measurement=9.0
compound=C/C(=C1/SC(N2CCC3(CC2)OCc2ccccc23)=NC1=O)C1CCCCC1 recorded_measurement=8.7

Origin of values: patent US10092551B2
